Sourced from patent US20220332800A1

Assignment: determine reported response of 2nd mAb for the given binders.
- SYSTEM_NAME: T1, ZIKV-VLP (Native Antigen Inc.) (Zika virus)
- T1 construct: also called Zika VLP; ZVLP
- PROTOCOL_NOTES: BLI binning on ZIKV-VLP; 1st mAb (row): 289-3
Give bare numbers.

Worked cases, answers included:
BINDER | response of 2nd mAb
anti-ZIKV antibody 270-12 (antibody, V domains shown, also called clone 270-12) VH: QAQLEESGGDLVKPEGSLTLTCTASGFSFTDRHYMCWVRQAPGKGLEWIACVYPGSSGSTYYASWARGRFTISKTSSTTVTLRMTSLTAADTATYFCARSSYPDSSGYSYGMDLWGPGTLVTVSS VL: DIVMTQTPASVEAAVGGTVTIKCQASQDINSNLAWYQQKPGQRPKFLMYLTSKLASGVPSRFRGSGSGTQFTLTISDLECADAATYYCQTYYDISNYGYAFGGGTEVVVKG | 0.0261
anti-ZIKV antibody 289-3 (antibody, V domains shown, also called clone 289-3; subclone 289-3) VH: QEELEESGGDLVKPGASLTLTCKASGFSFSSGAYICWVRQAPGKGPEWIACIYTGDGRTYYANWAKRRFTISSSSSTTVALEMPSLTDADTATYFCARAIAVGAGYGVGNYFTLWGPGTLVTVSS VL: DIVMTQTPSSVSAAVGGTVTINCHASENIYGYLSWYQQKPGQPPKLLIYKASTLASGVPSRFKGSGAGTQFTLTITALECADAATYYCQSYYTSSSNADGSENAFGGGTEVVVEG | 0.0128

Please report the recorded response of 2nd mAb for anti-ZIKV antibody 242-3 (antibody, V domains shown, also called clone 242-3) VH: QAQLEESGGDLVKPEGSLTLTCTASGFSFTDRHYMCWIRQAPGKGLEWIACVYPGSSGSTYYASWARGRFTISKTSSTTVTLRMTSLTAADTATYFCARSSYPDSSGYSYGMDLWGPGTLVTVSS VL: DIVMTQTPASVEAAVGGTVTIKCQASQNINSNLAWYQQKPGQRPKFLMYLTSKLASGVPSRFRGSGSGTQFTLTISDLECADAATYYCQTYYDISNYGYAFGGGTEVVVK .
0.0219
